assay.system: NADPH oxidase 4 (Homo sapiens) (UniProt Q9NPH5)
Sequence (Q9NPH5 whole entry, looked up): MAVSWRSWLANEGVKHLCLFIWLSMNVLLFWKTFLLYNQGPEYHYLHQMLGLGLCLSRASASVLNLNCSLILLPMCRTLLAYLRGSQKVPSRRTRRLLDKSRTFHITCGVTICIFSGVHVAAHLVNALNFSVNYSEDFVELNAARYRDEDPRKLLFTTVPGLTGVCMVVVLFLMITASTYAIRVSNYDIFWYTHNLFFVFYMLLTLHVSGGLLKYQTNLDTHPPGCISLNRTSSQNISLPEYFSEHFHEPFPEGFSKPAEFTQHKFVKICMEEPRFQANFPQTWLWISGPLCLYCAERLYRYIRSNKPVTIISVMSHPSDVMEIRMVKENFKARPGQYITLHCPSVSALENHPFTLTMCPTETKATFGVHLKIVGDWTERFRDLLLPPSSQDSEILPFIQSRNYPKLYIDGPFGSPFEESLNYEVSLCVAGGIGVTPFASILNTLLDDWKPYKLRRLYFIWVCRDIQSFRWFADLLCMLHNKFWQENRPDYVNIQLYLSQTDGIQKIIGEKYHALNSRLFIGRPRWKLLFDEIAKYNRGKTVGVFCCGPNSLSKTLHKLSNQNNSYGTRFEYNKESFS
test.method.notes: NOX4-dependent H2O2 signal modulators, primary screen, NOX inhibitor project, cell-based, HEK293-NOX4, tetracycline-induced, Amplex Red fluorescence (AID 1160)
conditions.used: 45 min, higher = more signal, called active from +8 up or from −8 down
Label yes (1) when z-score is at or above 0.02; otherwise label no (0).

Prompt line: Record CO[C@@H](C1CCCCC1)[C@@H](C)[C@H](OCc1cccc(Br)c1)[C@@H](C)CO ; criterion: z-score no lower than 0.02. Met?
Response line: yes (1)

Prompt line: Exam item: decide whether the reported z-score for CC(CCN1CCCCc2nc(C)c(C)cc21)=NOC[C@@H](O)[C@H]1O[C@@H]2OC(C)(C)O[C@@H]2[C@H]1O is at least 0.02.
Response line: yes (1)

Prompt line: Reported z-score reaches at least 0.02 for CCOC(=O)[C@H](Cc1ccccc1)NC(=O)CCC1CC(OC(=O)NCc2cccc3ccccc23)CC2(CCCC(COC(=O)NCC3CCCCC3)O2)O1 (stereo partly drawn) ?
Response line: yes (1)

Prompt line: # bool: z-score of COC(=O)CC=C[C@@H](C)[C@@H](C=NOC[C@@H](O)COCc1ccco1)NS(=O)(=O)c1ccc(C)cc1 >= 0.02
Response line: no (0)

Prompt line: Threshold query (z-score >= 0.02) on CC(C)=NOC(C)CN1CCCc2nc(C)c(C)cc21 (stereo not drawn)
Response line: no (0)

Prompt line: # check: z-score of COC(=O)CC=C[C@@H](C)[C@@H](C=NOC[C@@H](O)COCc1ccco1)OC is greater than or equal to 0.02
Response line: yes (1)

Prompt line: z-score >= 0.02 for CCOC(=O)[C@H](Cc1ccccc1)NC(=O)CCC1CC(OC(=O)NCCc2ccc(F)cc2)CC2(CCCC(COC(=O)NCc3cccc(C(F)(F)F)c3)O2)O1 (stereo partly drawn) ?
Response line: yes (1)

Prompt line: Given CCOC(=O)NN=C1C[C@@H](O)[C@@H](O)[C@@H]2[C@@H]3C(=O)N(C[C@@H]4CCCO4)C(=O)[C@@H]3CC[C@H]12 , state whether its z-score is at least 0.02.
Response line: yes (1)
